molecular target: Luciferin 4-monooxygenase (Photinus pyralis) (UniProt P08659); experiment: Biochemical firefly luciferase enzyme assay for NPC (AID 624030);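 also: purified P. pyralis luciferase at 10 nM with luciferin and ATP substrate; nearly all actives have a fitted effect of over 70% in size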; conditions: purified P. pyralis luciferase, luminescence, 5 min; series mostly up to 58.6 µM
Sequence (P08659 whole entry, looked up): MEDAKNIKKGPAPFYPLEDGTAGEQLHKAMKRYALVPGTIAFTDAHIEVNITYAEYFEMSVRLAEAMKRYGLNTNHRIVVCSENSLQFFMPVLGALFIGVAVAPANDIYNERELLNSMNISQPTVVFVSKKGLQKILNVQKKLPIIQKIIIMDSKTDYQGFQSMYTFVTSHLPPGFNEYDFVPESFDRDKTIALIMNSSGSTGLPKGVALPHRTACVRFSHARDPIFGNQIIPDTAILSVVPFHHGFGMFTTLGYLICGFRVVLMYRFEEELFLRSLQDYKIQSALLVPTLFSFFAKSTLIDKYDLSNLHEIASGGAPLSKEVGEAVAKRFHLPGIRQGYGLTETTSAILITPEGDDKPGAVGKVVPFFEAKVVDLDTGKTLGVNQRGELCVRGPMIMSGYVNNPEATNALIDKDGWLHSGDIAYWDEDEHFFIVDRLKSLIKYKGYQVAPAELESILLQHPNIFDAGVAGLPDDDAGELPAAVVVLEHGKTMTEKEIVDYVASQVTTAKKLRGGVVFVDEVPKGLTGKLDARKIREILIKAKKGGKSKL
Results filed as inconclusive are left out. Calls of active or inactive are those of the source. Calls follow the shape of the dose curve; as a rule, active = well fitted inhibition curve with a large enough effect; inconclusive = small, poorly fitted or top-dose-only effect; inactive = flat fitted curve, though single readings scatter.
Tick one outcome: active, inactive

>  <molecule>
COC(F)(F)C(Cl)Cl

>  <cat>
inactive

$$$$
>  <molecule>
C[C@]12CCC(=O)C=C1CC[C@@H]1[C@@H]2[C@@H](O)C[C@@]2(C)[C@H]1CC[C@]2(O)C(=O)COP(=O)(O)O

>  <cat>
inactive

$$$$
>  <molecule>
CO[C@H](C(=O)[C@@H](O)[C@@H](C)O)C1Cc2cc3cc(O[C@H]4C[C@@H](O[C@H]5C[C@@H](O)[C@H](O)[C@@H](C)O5)[C@@H](O)[C@@H](C)O4)c(C)c(O)c3c(O)c2C(=O)[C@H]1O[C@H]1C[C@@H](O[C@H]2C[C@@H](O[C@H]3C[C@](C)(O)[C@H](O)[C@@H](C)O3)[C@H](O)[C@@H](C)O2)[C@H](O)[C@@H](C)O1 (some centres not stated)

>  <cat>
inactive

$$$$
>  <molecule>
CN(C)CCCN1c2ccccc2C(C)(C)c2ccccc21

>  <cat>
inactive

$$$$
>  <molecule>
CC(=O)Oc1c(C)cc(OCC(O)CNC(C)C)c(C)c1C (configuration not stated)

>  <cat>
inactive

$$$$
>  <molecule>
CCCCC(=O)O[C@]1(C(=O)CO)[C@H](C)C[C@H]2[C@@H]3CCC4=CC(=O)C=C[C@]4(C)[C@@]3(F)[C@@H](O)C[C@@]21C

>  <cat>
inactive

$$$$

QUERY: Recorded test outcome, item Oc1cc(O)c2c(c1)OC(c1ccc(O)c(O)c1)C(O)C2 (configuration not stated)
RESULT: inactive

meta.source: PubChem BioAssay (NCATS)
